# ASSAY_TEXT: Inspection of crystallization and round cells
# Assay type: physicochemical
# Design: key: 1=yes crystals; 0=no crystals
# EXPERIMENTAL_CONTEXT: 25.0 μM compound, HeLa MKYP culture, 20× magnification
// visual inspection of crystallization lookup, one value per entry

Recorded results for 3 compounds are shown here.
compound="c1coc(CNc2ncnc3[nH]cnc23)c1 [Kinetin, kinetin, reference compound]" observed_result=0
compound=FC(F)(F)c1cc2c(N[C@H]3c4ccccc4CC[C@@H]3N3C[C@H]4COC[C@H]4C3)ncnc2[nH]1 observed_result=1
compound="FC(F)(F)c1cc2c(N[C@H]3c4ccccc4CC[C@@H]3N3CC4(CCOCC4)C3)ncnc2[nH]1 (single isomer, unassigned)" observed_result=0

# context switch: different compound, same visual inspection of crystallization
Query: visual inspection of crystallization; subject: FC(F)(F)c1cc2c(NC3CCCc4ccccc43)ncnc2[nH]1 (single isomer, unassigned)
0

###

# Test system: HeLa MKYP cells
# ASSAY_TEXT: Cell death measured by DAPI staining, with 1 μM FCCP/oligomycin or no toxin (no FO)
# Format: cell-based
# EXPERIMENTAL_CONTEXT: with 1 μM FO
// Max % death with 1 μM FO lookup, one value per entry
All answers are understood in %, so give the number only.

compound="FC(F)(F)c1cc2c(N[C@H]3c4ccccc4OC[C@@H]3N3CCOCC3)ncnc2[nH]1 [EP-0040078]" observed_result=18.5
compound="COC1(C)CN(C2COc3ccccc3C2Nc2ncnc3[nH]c(C(F)(F)F)cc23)C1 (single isomer, unassigned)" observed_result=11.1
compound="CN(c1ncnc2[nH]c(C(F)(F)F)cc12)C1c2ccccc2CCC1N1C[C@H]2COC[C@H]2C1 (some centres unmarked)" observed_result=20.4
compound=CO[C@H]1CCN([C@H]2COc3ccccc3[C@@H]2Nc2ncnc3[nH]c(C(F)(F)F)cc23)C1 observed_result=8.4

Lab request: please report Max % death with 1 μM FO under test system HeLa MKYP cells for FC1COCCC1[C@H]1COc2ccccc2[C@@H]1Nc1ncnc2[nH]c(C(F)(F)F)cc12 (single isomer, unassigned) [EP-0041323]
9.2

Lab request: please report Max % death with 1 μM FO under test system HeLa MKYP cells for COC1CN([C@H]2COc3ccccc3[C@@H]2Nc2ncnc3[nH]c(C(F)(F)F)cc23)C1 [EP-0040697]
57.6

Lab request: please report Max % death with 1 μM FO under test system HeLa MKYP cells for c1ccc2c(c1)CC[C@@H](N1C[C@H]3COC[C@H]3C1)[C@@H]2Nc1ncnc2[nH]c(C3CC3)cc12 (single isomer, unassigned)
12.3

Lab request: please report Max % death with 1 μM FO under test system HeLa MKYP cells for `C[C@@H]1CN([C@H]2COc3cc(F)ccc3[C@@H]2Nc2ncnc3[nH]c(C(F)(F)F)cc23)CCO1`
5.1

Lab request: please report Max % death with 1 μM FO under test system HeLa MKYP cells for c1ccc2c(c1)OC[C@H](N1CCOCC1)[C@H]2Nc1ncnc2[nH]c(C3CC3)cc12 (single isomer, unassigned) [EP-0040180]
10.4

Lab request: please report Max % death with 1 μM FO under test system HeLa MKYP cells for c1ccc2c(c1)CC[C@H](N1C[C@H]3COC[C@H]3C1)[C@H]2Nc1ncnc2[nH]c(C3CC3)cc12 [EP-0039713]
26.3

Lab request: please report Max % death with 1 μM FO under test system HeLa MKYP cells for `FC(F)(F)c1cc2c(N[C@@H]3c4ccccc4CC[C@@H]3N3CCOCC3)ncnc2[nH]1`
60.7

###

# ASSAY_TEXT: Kinetic solubility
# Format: physicochemical
// solubility kinetic lookup, one value per entry
All answers are understood in µM, so give the number only.

Recorded results for 2 molecules are shown here.
molecule=FC(F)(F)c1cc2c(N[C@H]3c4ccccc4CC[C@@H]3N3CC4(COC4)C3)ncnc2[nH]1 measured_endpoint="solubility kinetic" observed_result=157
molecule="Fc1ccc2c(c1)CC[C@@H](N1CCOCC1)[C@@H]2Nc1ncnc2[nH]c(C(F)(F)F)cc12 (single isomer, unassigned)" measured_endpoint="solubility kinetic" observed_result=1.56

# context switch: different molecule, same solubility kinetic
Query: solubility kinetic; subject: Fc1ccc2c(c1)CC[C@H](N1CCOCC1)[C@H]2Nc1ncnc2[nH]c(C3CC3)cc12 (single isomer, unassigned)
1.56

###

// Max cell death at 25 μM compound, 1 uM FO (%) lookup, one value per entry
# Tested on: HeLa MKYP cells
# ASSAY_TEXT: Cell death measured by DAPI staining, with 1 μM FCCP/oligomycin or no toxin (no FO)
# Assay type: cell-based
# EXPERIMENTAL_CONTEXT: 25 μM compound, 1 uM FO
All answers are understood in %, so give the number only.

Recorded results for 2 compounds are shown here.
compound="FC(F)(F)c1cc2c(N[C@H]3c4ccccc4CC[C@@H]3N3C[C@H]4COC[C@H]4C3)ncnc2[nH]1 [EP-0038461]" value_unit=% observed_result=7.97
compound=CN(CC1CCOCC1)[C@H]1CCc2ccccc2[C@@H]1Nc1ncnc2[nH]c(C(F)(F)F)cc12 value_unit=% observed_result=61

Query: Max cell death at 25 μM compound, 1 uM FO (%); subject: FC(F)(F)c1cc2c(N[C@H]3c4ccccc4CC[C@@H]3N3CC4(CCOCC4)C3)ncnc2[nH]1 (single isomer, unassigned)
87.805

Query: Max cell death at 25 μM compound, 1 uM FO (%); subject: CN(c1ncnc2[nH]c(C3CC3)cc12)C1c2ccccc2CCC1N1C[C@H]2COC[C@H]2C1 (stereo partly drawn)
33.7

###

// Max % death with 1 μM FO lookup, one value per entry
# Tested on: HeLa MKYP cells
# ASSAY_TEXT: Cell death measured by DAPI staining, with 1 μM FCCP/oligomycin or no toxin (no FO)
# Format: cell-based
# EXPERIMENTAL_CONTEXT: with 1 μM FO
Give me the value, and tack the unit on after it.

Recorded results for 3 compounds are shown here.
compound="C[C@@H]1CN([C@H]2COc3cc(F)ccc3[C@@H]2Nc2ncnc3[nH]c(C(F)(F)F)cc23)C[C@H](C)O1 (single isomer, unassigned) [EP-0040773]" target_or_system="HeLa MKYP cells" measured_endpoint="Max % death with 1 μM FO" observed_result=27.3%
compound="c1ccc2c(c1)OCC(N1CC3CCOC3C1)C2Nc1ncnc2[nH]c(C3CC3)cc12 (single isomer, unassigned) [EP-0041669]" target_or_system="HeLa MKYP cells" measured_endpoint="Max % death with 1 μM FO" observed_result=2.5%
compound="FC1COCCC1[C@H]1COc2ccccc2[C@@H]1Nc1ncnc2[nH]c(C(F)(F)F)cc12 (single isomer, unassigned) [EP-0041324]" target_or_system="HeLa MKYP cells" measured_endpoint="Max % death with 1 μM FO" observed_result=10.4%

Lab request: please report Max % death with 1 μM FO under test system HeLa MKYP cells for FC(F)(F)c1cc2c(N[C@@H]3c4ccccc4OC[C@@H]3C3CCCOC3)ncnc2[nH]1 (single isomer, unassigned)
24.8%

Lab request: please report Max % death with 1 μM FO under test system HeLa MKYP cells for `FC(F)(F)c1cc2c(N[C@H]3c4ccccc4CC[C@@H]3N3CCCOCC3)ncnc2[nH]1`
8.5%

Lab request: please report Max % death with 1 μM FO under test system HeLa MKYP cells for `CO[C@@H]1CCN([C@H]2COc3ccccc3[C@@H]2Nc2ncnc3[nH]c(C(F)(F)F)cc23)C1`
8.5%

###

# ASSAY_TEXT: Mitotoxicity / Mitotox safety margin (therapeutic window)
# Type: cell-based
# EXPERIMENTAL_CONTEXT: mitotox or cytotox
MEASURED_ENDPOINT: Highest safe dose (μM) (mitotox or cytotox) (µM)
All answers are understood in µM, so give the number only.

compound="FC(F)OC1CN([C@H]2COc3ccccc3[C@@H]2Nc2ncnc3[nH]c(C(F)(F)F)cc23)C1 (single isomer, unassigned)" observed_result=8.3
compound=FC(F)(F)c1cc2c(N[C@H]3c4ccccc4OC[C@@H]3C3CCOCC3)ncnc2[nH]1 observed_result=25.0
compound="C[C@H]1CN([C@H]2CCc3ccccc3[C@@H]2Nc2ncnc3[nH]c(C(F)(F)F)cc23)CCO1 (single isomer, unassigned)" observed_result=9.1
compound="Fc1ccc2c(c1)OC[C@H](N1C[C@H]3COC[C@H]3C1)[C@H]2Nc1ncnc2[nH]c(C3CC3)cc12 (single isomer, unassigned)" observed_result=16.0

# context switch: different compound, same Highest safe dose (μM) (mitotox or cytotox)
Query: Highest safe dose (μM) (mitotox or cytotox); subject: `C[C@@H]1CN([C@@H]2COc3ccccc3[C@H]2Nc2ncnc3[nH]c(C4CC4)cc23)C[C@H](C)O1`
1.2
